FYI, the data here is from patent US20160137639A1.

- Target entity: mouse RORγ (Mus musculus)
- Construct: mouse, NM_011281.2 and from Ile251 to Lys516; expressed in transfected cells; host or cells: CHO cells (transient co-transfection with pG5-Luc reporter)
- Sequence (P51450 251-516): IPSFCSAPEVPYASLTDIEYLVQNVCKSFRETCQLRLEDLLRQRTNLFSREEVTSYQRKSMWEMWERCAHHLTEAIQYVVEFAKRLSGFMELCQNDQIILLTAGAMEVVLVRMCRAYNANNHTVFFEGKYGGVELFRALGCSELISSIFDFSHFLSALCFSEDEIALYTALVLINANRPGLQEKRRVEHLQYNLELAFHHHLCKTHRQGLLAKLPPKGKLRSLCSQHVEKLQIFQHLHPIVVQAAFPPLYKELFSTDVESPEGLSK
- Protocol description: Luciferase reporter gene assay of inhibitory effect against RORγ transcriptional activity (GAL4-mRORγ plasmid in CHO cells)
- Assay type: cell-based
- Setup conditions: read-out: LUC EC50 mRORg
pEC50: −log10 of the molar value.
Measure: pEC50

Given "Cc1ccc(NC(=O)C[C@H](OCC(F)(F)F)c2nnc(-c3cc(CC(C)C)on3)n2C2CC2)c(C)c1" , respond with its pEC50.
> 5.52

Give the measured pEC50 for "Cc1ccc(NC(=O)C[C@H](OC(C)C)c2nnc(-c3cc(CC(C)C)on3)n2C2CC2)c(C)c1"
> 5.52

Identify pEC50 associated with the compound Cc1ccc(NC(=O)[C@H]2CC(F)(F)C[C@@H]2c2nnc(-c3cc(CC(C)C)on3)n2C2CC2)c(C)c1 (racemic)
< 5.52

Dear colleague, please send me the reported pEC50 for Cc1ccc(NC(=O)[C@H]2CC(N(C)C)C[C@@H]2c2nnc([C@H]3C[C@@H](CC(C)C)C3)n2C2CC2)c(C)c1 (single isomer, unassigned) when you can.
> 5.52

Dear colleague, please send me the reported pEC50 for "Cc1ccc(NC(=O)CCc2noc([C@H]3C[C@@H](CC(C)(C)C)C3)c2C2CC2)c(Cl)c1" when you can.
> 5.52

Here is the next item to consider.
Quote pEC50 reported for Cc1ccc(NC(=O)C[C@H](CCC(=O)O)c2noc3c2C(C)CCC3CCC(C)C)c(Cl)c1 (single isomer, unassigned) [Example F-694] please.
> 5.52
